- measured-on: UniProtKB Q9QYN8
- Sequence (Q9QYN8 whole entry): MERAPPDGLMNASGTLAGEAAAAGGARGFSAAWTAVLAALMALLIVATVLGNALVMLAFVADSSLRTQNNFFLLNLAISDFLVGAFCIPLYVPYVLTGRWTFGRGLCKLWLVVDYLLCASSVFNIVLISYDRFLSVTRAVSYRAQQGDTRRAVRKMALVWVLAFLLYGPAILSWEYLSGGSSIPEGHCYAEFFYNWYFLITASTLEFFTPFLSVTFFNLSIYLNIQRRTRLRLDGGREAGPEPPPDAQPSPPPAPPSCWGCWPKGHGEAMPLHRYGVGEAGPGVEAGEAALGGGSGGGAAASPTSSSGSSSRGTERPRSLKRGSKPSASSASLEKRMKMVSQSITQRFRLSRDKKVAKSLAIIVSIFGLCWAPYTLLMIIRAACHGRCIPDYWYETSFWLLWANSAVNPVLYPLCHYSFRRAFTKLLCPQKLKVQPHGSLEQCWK
- protocol-details: Binding potency was determined by displacement of [3H]N-alpha-methyl histamine from histamine H3 receptor of rat cortical membranes
- Type: cell membranes, Membrane
pKi: −log10 of the molar value.
quantity: pKi

Use the examples below as a reference point.
molecule=O=C(c1ccc(-c2ccc3oc(CCN4CCC[C@H]4CO)cc3c2)cc1)N1CCOCC1 measured_on="UniProtKB Q9QYN8" quantity=pKi measured_value=8.16
molecule=C[C@@H]1CCCN1CCc1cc2cc(-c3ccc(C(=O)N4CCOCC4)cc3)ccc2o1 measured_on="UniProtKB Q9QYN8" quantity=pKi measured_value=8.71
molecule=O=C(c1ccc(-c2ccc3oc(CCN4CC[C@@H](O)C4)cc3c2)cc1)N1CCOCC1 measured_on="UniProtKB Q9QYN8" quantity=pKi measured_value=7.46
molecule=O=C(c1ccc(-c2ccc3oc(CCN4CCCCC4)cc3c2)cc1)N1CCOCC1 measured_on="UniProtKB Q9QYN8" quantity=pKi measured_value=8.21

a = C[C@@H]1CCCN1CCc1cc2cc(-c3ccc(C(=O)N4CCOCC4)cn3)ccc2o1
b = O=C(c1ccc(-c2ccc3oc(CCN4CC=CCC4)cc3c2)cc1)N1CCOCC1
c = C[C@@H]1CCC[C@H](C)N1CCc1cc2cc(-c3ccc(C(=O)N4CCOCC4)cc3)ccc2o1
d = O=C(c1ccc(-c2ccc3oc(CCN4CCOCC4)cc3c2)nc1)N1CCOCC1
e = CC1CCN(CCc2cc3cc(-c4ccc(C(=O)N5CCOCC5)cn4)ccc3o2)CC1
Q. Rank descending by pKi. API: response body holds the labels in the requested order.
A. a, c, b, e, d

1 = C[C@@H]1CC[C@@H](C)N1CCc1cc2cc(-c3ccc(C(=O)N4CCOCC4)cn3)ccc2o1
2 = O=C(c1ccc(-c2ccc3oc(CCN4CCC[C@@H]4CO)cc3c2)nc1)N1CCOCC1
Q. Pick one: 1 or 2 . Which one has the lower reported pKi? In your reply, give the label of the chosen option.
A. 2
(2: 6.96, 1: 7.59)

a = N#Cc1ccc(-c2ccc3oc(CCN4CCC[C@@H]4CC(=O)O)cc3c2)cc1
b = O=C(c1ccc(-c2ccc3oc(CCN4CCOCC4)cc3c2)cc1)N1CCOCC1
Q. Pick one: a or b . Which one has the lower reported pKi? In your reply, give the label of the chosen option.
A. a
(a: 5.80, b: 6.80)
